Reference source: ChEMBL document CHEMBL4270512

Method Description: Uncompetitive inhibition of bovine kidney alpha-fucosidase using p-nitrophenyl glycopyranoside as substrate preincubated for 5 mins followed by substrate addition and measured after 20 mins by Cornish-Bowden plot analysis
Set-up: species or system Bos taurus
Readout Type: Ki (nM)

| Molecule | Assay Value |
| --- | --- |
| C[C@@H]1N[C@@H](c2cn(-c3ccc(S(=O)(=O)c4ccc(-n5cc([C@@H]6N[C@@H](C)[C@@H](O)[C@H]6O)nn5)cc4)cc3)nn2)[C@H](O)[C@@H]1O | 0.52 |

----------
Method Description: Competitive inhibition of human alpha-fucosidase using p-nitrophenyl glycopyranoside as substrate preincubated for 5 mins followed by substrate addition and measured after 20 mins by Lineweaver-Burk plot analysis
pKi: −log10 of the molar value.
Readout Type: pKi

| Molecule | Assay Value |
| --- | --- |
| C[C@@H]1N[C@@H](c2cn(-c3ccc(S(=O)(=O)c4ccc(N=[N+]=[N-])cc4)cc3)nn2)[C@H](O)[C@@H]1O | 7.14 |
| C[C@@H]1N[C@@H](c2cn(CCOCCOCCOCCn3cc([C@@H]4N[C@@H](C)[C@@H](O)[C@H]4O)nn3)nn2)[C@H](O)[C@@H]1O | 5.32 |
| C[C@@H]1N[C@@H](c2cn(-c3ccccc3)nn2)[C@H](O)[C@@H]1O | 6.07 |
| C[C@@H]1N[C@@H](c2c[nH]nn2)[C@H](O)[C@@H]1O | 4.74 |
| C[C@@H]1N[C@@H](c2cn(CCCCCCn3cc([C@@H]4N[C@@H](C)[C@@H](O)[C@H]4O)nn3)nn2)[C@H](O)[C@@H]1O | 5.60 |
